Value source: the supplement of paper PMC11451515

tested on: NOMO1; experiment: cell viability relative to DMSO control; higher = less cytotoxic; settings: RPMI 5 mM glucose + 10% dialyzed FBS; 48 h; 0.000781 µM
Give cell viability for every item shown.
Answers are plain numbers, in %.

Solved cases below.
In: What does the data say about its cell viability? Entry: CN(c1ncccc1CNc1nc(Nc2ccc3c(c2)CC(=O)N3)ncc1C(F)(F)F)[S+](C)(=O)[O-]
Out: 104

In: How about CC(=O)O[C@H]1C(=O)[C@]2(C)[C@@H](O)C[C@H]3OC[C@@]3(OC(C)=O)C2[C@H](OC(=O)C4=CC=CC=C4)[C@]5(O)C[C@H](OC(=O)[C@H](O)[C@@H](NC(=O)C6=CC=CC=C6)C7=CC=CC=C7)\C(=C1/C5(C)C)C (some centres undefined) ?
Out: 106

In: How about CC1(C)CC(=O)c2c(C(F)(F)F)nn(-c3ccc(C(N)=O)c(NC4CCC(O)CC4)c3)c2C1 (centres undefined) ?
Out: 91.7

Please look at the following compound next.
In: What does the data say about its cell viability? Entry: CC(C)n1nc(-c2cc3cc(O)ccc3[nH]2)c2c(N)ncnc21
Out: 111
